Record form. Attribute: melting point. Fill in for each entry.

compound="COC(=O)C1CCCN1S(=O)(=O)c1ccc(Cl)c(COc2cccn3c(C(C)=O)c(C)nc23)c1Cl (stereo not given)" assay_metric="melting point" experimental_value="178 °C"

Report melting point for every entry below.
1. CCc1cn(C2CC(O)C(CNC(=O)Cc3ccccc3Br)O2)c(=O)nc1N (stereo not given)
2. NC(=NCC(F)(F)F)Nc1ccnc(CSCCN2C(=O)c3ccccc3C2=O)n1
3. O=c1nc(N(Cc2ccccc2)c2ccccc2)sc2ncccc12
4. CCCCCCCOc1ccc2c(c1)N(CCCN1CCC(CCO)CC1)c1cccc(S(=O)(=O)N(C)C)c1S2
5. Clc1nsnc1-c1ccccc1
6. O=C(NCCO)c1cccc(-c2ccc3c(c2)N(c2ccc(Cl)cc2Cl)CC3)c1

Result block:
1: 236 to 237 °C; 2: 167 to 168 °C; 3: 137 to 138 °C; 4: 80 °C; 5: 33 °C; 6: 140 to 141 °C

Report melting point for every entry below.
1. CCCCN1C(=O)[C@@H]2[C@H](C1=O)[C@H](c1ccc(C#N)cc1)N(C(C)=O)[C@H]2C (racemic)
2. CN(C)CCCCNC(=O)c1ccc(-c2nnc(CSCCOc3ccccc3)o2)cc1
3. COc1ccc(Cn2cnc(C(=N)C#N)c2N)cc1
4. COC(=O)c1cc(C)cc(OC)c1C1=C(OC)C(=O)c2c(OC(C)=O)cccc2C1=O
5. Cc1cc(C)c(Nc2nc(C)ccc2S(=O)(=O)c2ccc(C(=O)c3ccccc3)cc2)c(C)c1

Result block:
1: 140 to 141 °C; 2: 71 to 78 °C; 3: 92 to 94 °C; 4: 127 to 128 °C; 5: 222 to 225 °C
